- Tested on: Streptococcus pneumoniae
- measurementProtocol: Antibacterial activity against penicillin-resistant Streptococcus pneumoniae after 18 hrs by NCCLS agar dilution method
- Assay type: functional
reportedMetric: MIC

Recorded MIC, per entry:
{"chemicalSmiles": "O=C(NCC(=O)N1CCN(c2ccc(N3C[C@H](Cn4ccnn4)OC3=O)cc2F)CC1)c1ccccc1", "assayedTarget": "Streptococcus pneumoniae", "result": "1 mg/L"}
{"chemicalSmiles": "O=C(NCC(=O)N1CCN(c2ccc(N3C[C@H](Cn4ccnn4)OC3=O)cc2F)CC1)c1ccco1", "assayedTarget": "Streptococcus pneumoniae", "result": "0.25 mg/L"}
{"chemicalSmiles": "CC(C)(C)OC(=O)NCC(=O)N1CCN(c2ccc(N3C[C@H](Cn4ccnn4)OC3=O)cc2F)CC1", "assayedTarget": "Streptococcus pneumoniae", "result": "2 mg/L"}

Pending compound:
Record `Cc1cn(C[C@H]2CN(c3ccc(N4CCN(C(=O)CNC(=O)c5ccccc5)CC4)c(F)c3)C(=O)O2)nn1` , field MIC: 2 mg/L

====

MIC values by entry
- System: Moraxella catarrhalis
- measurementProtocol: Antibacterial activity against Moraxella catarrhalis clinical isolate 1 after 18 hrs by NCCLS agar dilution method
- Format: functional
- recordedConditions: clinical isolate 1, 18 h
Write the number in µg/mL without appending the unit.

{"chemicalSmiles": "O=C(NCC(=O)N1CCN(c2ccc(N3C[C@H](Cn4ccnn4)OC3=O)cc2F)CC1)c1ccc([N+](=O)[O-])o1", "uom": "µg/mL", "result": 1}

Proceeding to the next molecule to report its MIC.
Per the record, `Cc1cn(C[C@H]2CN(c3ccc(N4CCN(C(=O)CNC(=O)c5ccc([N+](=O)[O-])o5)CC4)c(F)c3)C(=O)O2)nn1` has MIC of 1

====

- System: Staphylococcus
- measurementProtocol: Antibacterial activity against methicillin-susceptible coagulase-negative Staphylococcus after 18 hrs by NCCLS agar dilution method
- Format: functional
reportedMetric: MIC

Take a look at these entries with their results.
{"compound": "O=C(NCC(=O)N1CCN(c2ccc(N3C[C@H](Cn4ccnn4)OC3=O)cc2F)CC1)c1ccccc1", "MIC": "0.5 µg/mL"}
{"compound": "O=C(NCC(=O)N1CCN(c2ccc(N3C[C@H](Cn4ccnn4)OC3=O)cc2F)CC1)c1ccco1", "MIC": "1 µg/mL"}
{"compound": "CC(=O)NCC(=O)N1CCN(c2ccc(N3C[C@H](Cn4cc(C)nn4)OC3=O)cc2F)CC1", "MIC": "2 µg/mL"}
{"compound": "Cc1cn(C[C@H]2CN(c3ccc(N4CCN(C(=O)CNC(=O)OC(C)(C)C)CC4)c(F)c3)C(=O)O2)nn1", "MIC": "4 µg/mL"}
{"compound": "O=C(NCC(=O)N1CCN(c2ccc(N3C[C@H](Cn4ccnn4)OC3=O)cc2F)CC1)C1CCCO1 (stereo partly drawn)", "MIC": "4 µg/mL"}
{"compound": "O=C(CNS(=O)(=O)c1cccs1)N1CCN(c2ccc(N3C[C@H](Cn4ccnn4)OC3=O)cc2F)CC1", "MIC": "2 µg/mL"}

The recorded MIC for entry `CC(=O)NCC(=O)N1CCN(c2ccc(N3C[C@H](Cn4ccnn4)OC3=O)cc2F)CC1` equals 2 µg/mL

Input `O=C(NCC(=O)N1CCN(c2ccc(N3C[C@H](Cn4ccnn4)OC3=O)cc2F)CC1)c1ccc([N+](=O)[O-])o1` . Output MIC: 0.06 µg/mL
